# TARGET_OF_ASSAY: functional uptake of dopamine (DA) (Rattus norvegicus, UniProt P23977)
# Construct: synaptosomes isolated at Cerep in a 0.32 M sucrose buffer from a male Wistar rat striatum; tissue Cerep
# Sequence (P23977 whole entry): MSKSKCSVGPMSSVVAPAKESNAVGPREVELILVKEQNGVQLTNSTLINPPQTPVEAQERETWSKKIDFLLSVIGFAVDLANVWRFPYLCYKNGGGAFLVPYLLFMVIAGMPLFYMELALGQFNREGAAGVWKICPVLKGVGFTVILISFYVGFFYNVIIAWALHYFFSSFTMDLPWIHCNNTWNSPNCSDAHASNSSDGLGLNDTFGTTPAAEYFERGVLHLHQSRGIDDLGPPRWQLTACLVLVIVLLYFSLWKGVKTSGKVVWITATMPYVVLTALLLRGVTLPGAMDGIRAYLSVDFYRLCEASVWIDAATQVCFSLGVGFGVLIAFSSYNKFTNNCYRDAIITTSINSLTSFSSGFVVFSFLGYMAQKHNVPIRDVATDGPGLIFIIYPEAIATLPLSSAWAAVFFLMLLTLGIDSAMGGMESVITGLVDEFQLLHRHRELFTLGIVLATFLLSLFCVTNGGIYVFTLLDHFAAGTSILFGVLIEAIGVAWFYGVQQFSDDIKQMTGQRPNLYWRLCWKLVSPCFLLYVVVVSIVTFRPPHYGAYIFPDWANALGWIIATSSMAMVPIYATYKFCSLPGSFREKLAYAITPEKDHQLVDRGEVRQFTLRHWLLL
# ASSAY_DETAILS: Dopamine functional uptake assay in rat striatum synaptosomes
# CONDITION: Table 6; rat synaptosomes
pIC50: −log10 of the molar value.
PROPERTY_NAME: pIC50

1) N[C@@H]1CC[C@@H](c2ccc(Cl)c(Cl)c2)c2ccccc21 (relative stereo) [P + Q]
8.15

----------
# TARGET_OF_ASSAY: functional uptake of norepinephrine (NE) (Rattus norvegicus)
# Construct: synaptosomes isolated at Cerep in a 0.32 M sucrose buffer from a male Wistar rat hypothalamus; tissue Cerep
# Sequence (Q63380 1-617): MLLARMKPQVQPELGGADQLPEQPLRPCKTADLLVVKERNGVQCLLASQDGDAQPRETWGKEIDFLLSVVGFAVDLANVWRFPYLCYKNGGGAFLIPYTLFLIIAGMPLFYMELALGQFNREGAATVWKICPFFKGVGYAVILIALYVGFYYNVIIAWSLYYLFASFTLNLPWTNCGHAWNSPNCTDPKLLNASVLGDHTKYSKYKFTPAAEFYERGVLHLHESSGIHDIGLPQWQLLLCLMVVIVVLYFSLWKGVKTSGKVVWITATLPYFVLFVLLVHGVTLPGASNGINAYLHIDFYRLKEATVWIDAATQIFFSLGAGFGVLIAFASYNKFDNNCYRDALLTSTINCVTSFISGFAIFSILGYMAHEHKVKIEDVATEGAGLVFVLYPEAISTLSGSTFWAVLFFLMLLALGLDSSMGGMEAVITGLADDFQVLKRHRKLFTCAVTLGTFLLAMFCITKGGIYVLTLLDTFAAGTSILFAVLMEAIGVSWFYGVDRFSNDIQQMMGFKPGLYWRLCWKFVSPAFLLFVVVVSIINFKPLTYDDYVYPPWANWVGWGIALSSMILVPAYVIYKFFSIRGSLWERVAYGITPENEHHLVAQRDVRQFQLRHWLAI
# ASSAY_DETAILS: biochemical
# CONDITION: Table 6; rat synaptosomes
pIC50: −log10 of the molar value.
PROPERTY_NAME: pIC50

1. N[C@@H]1CC[C@@H](c2ccc(Cl)c(Cl)c2)c2ccccc21 (relative stereo) [P + Q]
8.06
